# experiment-summary: AUC in bacterial pathogen-infected neutropenic Swiss ICR mouse thigh infection model at 5 mg/kg, ip
# Assay type: ADME, organism-based
# Design: dose 5 mg/kg, route intraperitoneal
# experimental-parameters: in vivo
measured-attribute: AUC (µg·h/mL)
One number for each entry, in µg·h/mL.

Documented AUC of CN[C@H]1C(=O)N[C@@H]2Cc3ccc(cc3)Oc3cc4cc(c3O[C@@H]3O[C@H](C(=O)O)[C@@H](O)[C@H](O)[C@H]3NC(=O)CCCCCCCCC(C)C)Oc3ccc(cc3Cl)[C@@H](O)[C@@H]3NC(=O)[C@H](NC(=O)[C@@H]4NC(=O)[C@@H](NC2=O)c2cc(cc(O)c2Cl)Oc2cc1ccc2O)c1ccc(O)c(c1)-c1c(O[C@H]2O[C@H](CO)[C@@H](O)[C@H](O)[C@@H]2O)cc(O)cc1[C@@H](C(=O)NCCCN(C)C)NC3=O [DALBAVANCIN] : 285
